target: MAP3K14 (human) (UniProt Q99558); experiment: radiometric filter-binding kinase assay, Kinase HotSpot; conditions: compound 0.5 µM; ATP 10 µM
Sequence (Q99558 whole entry, looked up): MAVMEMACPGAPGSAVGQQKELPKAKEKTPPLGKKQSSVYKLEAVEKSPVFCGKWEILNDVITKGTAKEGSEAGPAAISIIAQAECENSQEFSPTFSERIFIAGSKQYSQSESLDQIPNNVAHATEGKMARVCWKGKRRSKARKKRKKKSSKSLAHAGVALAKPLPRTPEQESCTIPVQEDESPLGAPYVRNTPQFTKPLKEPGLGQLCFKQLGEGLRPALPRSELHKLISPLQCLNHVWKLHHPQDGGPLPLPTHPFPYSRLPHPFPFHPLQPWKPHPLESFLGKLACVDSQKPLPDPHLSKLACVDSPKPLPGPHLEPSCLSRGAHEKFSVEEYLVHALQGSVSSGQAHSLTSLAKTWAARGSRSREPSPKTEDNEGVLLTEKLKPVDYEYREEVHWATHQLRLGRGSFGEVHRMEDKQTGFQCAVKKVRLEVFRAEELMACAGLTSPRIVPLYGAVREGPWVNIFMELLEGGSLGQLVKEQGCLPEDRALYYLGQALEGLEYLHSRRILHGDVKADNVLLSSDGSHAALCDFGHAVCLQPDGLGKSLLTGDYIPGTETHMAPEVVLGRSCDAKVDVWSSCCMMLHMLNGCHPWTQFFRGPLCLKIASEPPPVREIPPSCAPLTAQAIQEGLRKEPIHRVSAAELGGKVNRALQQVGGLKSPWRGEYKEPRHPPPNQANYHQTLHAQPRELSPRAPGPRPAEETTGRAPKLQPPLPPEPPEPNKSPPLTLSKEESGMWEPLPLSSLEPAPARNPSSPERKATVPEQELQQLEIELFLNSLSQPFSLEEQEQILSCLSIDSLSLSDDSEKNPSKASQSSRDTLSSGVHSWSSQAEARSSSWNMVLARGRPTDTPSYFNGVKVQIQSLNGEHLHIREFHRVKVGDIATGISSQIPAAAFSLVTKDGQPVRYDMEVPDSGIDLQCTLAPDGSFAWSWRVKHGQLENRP
value-type: residual activity (%)
# unit: % | format: bare number

molecule-smiles: CC(=O)O/N=C1\C(=C2\C(=O)Nc3cc(Br)ccc32)Nc2ccccc21
tested-system: MAP3K14 (human) (UniProt Q99558)
residual activity / %: 75.7
//
molecule-smiles: O=C(O)/C=C/c1cc(Br)c(Br)c(Br)c1Br
tested-system: MAP3K14 (human) (UniProt Q99558)
residual activity / %: 100
//
molecule-smiles: CC(C)c1nn(-c2c(Cl)cccc2Cl)c2nc(Cc3ccc(OCCO)cc3)nc(O)c12
tested-system: MAP3K14 (human) (UniProt Q99558)
residual activity / %: 97.3
//
molecule-smiles: Nc1nccc(-c2c(-c3ccc(F)cc3)ncn2C2CCNCC2)n1
tested-system: MAP3K14 (human) (UniProt Q99558)
residual activity / %: 107
//
molecule-smiles: O=C1Cc2c([nH]c3ccc(Br)cc23)-c2ccccc2N1
tested-system: MAP3K14 (human) (UniProt Q99558)
residual activity / %: 106
//
molecule-smiles: CN([C@@H](Cc1ccc(OS(=O)(=O)c2cccc3cnccc23)cc1)C(=O)N1CCN(c2ccccc2)CC1)S(=O)(=O)c1cccc2cnccc12
tested-system: MAP3K14 (human) (UniProt Q99558)
residual activity / %: 90.7

What measured residual activity goes with `COc1cc2ncc(-c3ccccc3)nc2cc1OC` ?
115

What measured residual activity goes with `Cn1cnc2cc3c(Nc4cccc(Br)c4)ncnc3cc21` ?
90.6

What measured residual activity goes with `COc1ccc(OC)c2c(=S)c3ccccc3[nH]c12` ?
96

What measured residual activity goes with `CN(C)C[C@H]1CCn2c(c(C3=C(c4cn(C)c5ccccc45)C(=O)NC3=O)c3ccccc32)C1` ?
105
